system: A549/ATCC NSCLC; test: NCI-60 one-dose screen, 48 h (100 = growth as untreated, 0 = no growth, -100 = all killed); details: 10 µM
About 83,000 compounds went through this panel and 20% of them were active in at least one assay; those are over-represented in the sample as a whole.
Recorded growth values for a group of molecules are listed next.
Please respond with the number in % and leave the unit unwritten.

substance_smiles: COc1cc2cc3c(nc2cc1OC)CCN3Cc1ccc(NC(=O)Nc2ccc(F)cc2F)cc1
growth [%]: 69.4

substance_smiles: FC(F)(F)c1ccc(-c2cnc(-n3cc(COCCN4CCCCC4)nn3)nc2NC2CCCCCC2)cc1
growth [%]: 10.6

substance_smiles: NC(=O)CC1(c2ccccc2)CCCCC1
growth [%]: 116

substance_smiles: ClC(Cl)(Cl)c1nc2nccnc2[nH]1
growth [%]: 101

substance_smiles: Nc1cc2c(cc1Cl)-c1ccc([N+](=O)[O-])cc1/C2=N\O
growth [%]: 59.2

Next molecule, please.
# input Please give measured growth of the following entry: COc1ccccc1/C=C/C(=O)c1ccccc1
# output 67

* * *

test system: SK-MEL-5 melanoma; assay: NCI-60 one-dose screen, 48 h; conditions: 10 µM
Compounds without any hit were thinned out: in the full panel of roughly 83,000, 20% have a hit. Activity calls are given as the source filed them. The calls were made as follows: active = growth percent below 10; inactive = the rest.
Please reply with one of these outcomes: active, inactive

Below are worked cases with known answers.
compound: Cc1cccc2c1O/C(=C\c1ccc([N+](=O)[O-])o1)C2=O
category_label: active
--
compound: Cc1cc(C)c2c(n1)sc1c(Nc3ccc(Cl)cc3)ncnc12
category_label: inactive
--
compound: Cn1c([N+](=O)[O-])cnc1/C=C1\Oc2cc(Cl)ccc2C1=O
category_label: active

# input Please share the test call associated with N#Cc1ncc(-c2ccc(C(F)(F)F)cc2)c(NCc2cc(C(F)(F)F)cc(C(F)(F)F)c2)n1 .
# output inactive

# input Given O=C(Nc1cccc(Cl)c1)Nc1nccs1 , state the outcome it received in this test.
# output inactive

# input Kindly provide the recorded test outcome for the following compound: Clc1ccc(Nc2ccnc(NCCCNc3ccnc4cc(Cl)ccc34)n2)cc1
# output active

# input What did this assay record as the result for N#Cc1cc(-c2cc3ccccc3o2)oc1N ?
# output active

# input Record request — test call for c1ccc(CP(Cc2ccccc2)c2ccccc2)cc1
# output inactive

# input What call does the record list for COc1ccc(-c2nn(-c3cccc(NC(=O)c4cc(C(F)(F)F)cc(C(F)(F)F)c4)c3)cc2-c2ccncc2)cc1Cl ?
# output inactive

# input Per the records of this test, what outcome belongs to N=C1c2nc3n(c2C(=O)c2nc4n(c21)CCCC4)CCCC3 ?
# output active

# input Just curious, what result did c1ccc([C@H]2CN3CCSC3=N2)cc1 get here?
# output inactive

# input // param item: N#CCCN1C/C(=C/c2ccccc2)C(=O)/C(=C/c2ccccc2)C1 ; yields the recorded call
# output inactive

* * *

system: OVCAR-4 ovarian; experiment: NCI-60 one-dose screen, 48 h (100 = growth as untreated, 0 = no growth, -100 = all killed); conditions: 10 µM
Compounds without any hit were thinned out: in the full panel of roughly 83,000, 20% have a hit.
Mark YES for growth under 60%, NO if at or over.

compound: Cc1cccc(Cl)c1NC(=O)c1ccc2nc(NC(=O)NC3CCN(C)CC3)sc2c1
category_label: NO
--
compound: C[N+](C)(C)c1ncnc2nc[nH]c12
category_label: NO
--
compound: CC(=O)c1nc2ccccc2n1CCN1CCN(C)CC1
category_label: NO
--
compound: CCN(CC)CCN1CC(=O)Nc2cc(Cl)ccc21
category_label: NO
--
compound: CCCCOc1ccc(NC(=O)Nc2nnc(C)s2)cc1
category_label: NO

# input A record lists Cc1cccc(C)c1NC(=O)c1sc2nc3c(cc2c1N)C(=O)CCC3 . Is its growth below 60%?
# output NO

# input Take the compound CN(C)CCNC(=O)c1cccn2c(=O)c3cc4ccccc4cc3nc12 and say whether its growth is less than 60%.
# output YES

* * *

test system: A498 renal; assay: NCI-60 one-dose screen, 48 h (100 = growth as untreated, 0 = no growth, -100 = all killed); settings: 10 µM
About 83,000 compounds went through this panel and 20% of them were active in at least one assay; those are over-represented in the sample as a whole.
Catalogue of growth values
Use % as the unit, but write only the number.

Take a look at these entries with their results.
compound: COc1cccc(Cn2c(-c3nonc3N)nc3ccccc32)c1
target_of_assay: A498 renal
reading_unit: %
recorded_number: -19.3
--
compound: COc1cc(-c2nc(-c3nnc(-c4ccc(F)c(Cl)c4)o3)c3ccccn23)cc(OC)c1OC
target_of_assay: A498 renal
reading_unit: %
recorded_number: 40.6
--
compound: CN(Cc1ccccc1)Cc1ccc([N+](=O)[O-])cc1I
target_of_assay: A498 renal
reading_unit: %
recorded_number: 81.4
--
compound: COc1cc(NC(=O)CCSc2nc3ccc(C)cc3c(=O)n2Cc2ccccc2)cc(OC)c1OC
target_of_assay: A498 renal
reading_unit: %
recorded_number: 77.6
--
compound: COc1ccc2c(c1)sc1nc(-c3ccccc3)c(-c3cccnc3)n12
target_of_assay: A498 renal
reading_unit: %
recorded_number: 58.4
--
compound: CN(C)C=Nc1cc(Cl)ccc1Cl
target_of_assay: A498 renal
reading_unit: %
recorded_number: 105

# input Indicate the recorded growth value for this compound: CCCCOc1ccc(NC(=O)Nc2nnc(C)s2)cc1
# output 108

# input Specify measured growth for CCCCCCN1CCN(Cc2ccc(N(CC)CC)cc2)C(=O)C1=O .
# output -4.48

# input Look up and report measured growth for this entry: COc1ccc2c(c1)O/C(=C\c1ccc([N+](=O)[O-])o1)C2=O
# output 56.6

# input Read off the recorded growth for CN(C)Cc1cn(-c2ncc(-c3ccc(C(F)(F)F)cc3)c(NC3CCCCCC3)n2)nn1
# output 76.9

# input Please give measured growth of the following entry: COc1cc(Nc2ccnc(NCCCNc3ccnc4cc(Cl)ccc34)n2)cc(OC)c1
# output 14.9

# input Return growth for the following compound: O=C1OCC2=C1C(c1cccc(Cl)c1)c1cc3c(cc1N2CCO)CCC3 (configuration not stated)
# output -20.5

# input Name the recorded growth of the item COc1ccc(-c2cc(/C=C/C(=O)c3cc(OC)c(OC)c(OC)c3)[nH]n2)cc1OC in your answer.
# output -2.03

# input Quote growth reported for O=C(c1cccs1)c1ccccc1Cc1ccccc1 please.
# output 58.4

# input Kindly indicate its recorded growth. Item: CC(=O)C1CCC2C3CC(F)C4=CC(=O)CCC4(C)C3C(O)CC12C (configuration not stated)
# output 116

* * *

system: K-562 leukemia; experiment: NCI-60 one-dose screen, 48 h (100 = growth as untreated, 0 = no growth, -100 = all killed); conditions: 10 µM
Compounds without any hit were thinned out: in the full panel of roughly 83,000, 20% have a hit.
// classify: if (growth < 20%) y else n

compound: O=C(CC(C(=O)c1ccccc1)N1CCOCC1)c1ccccc1 (stereo not given)
category_label: n

compound: CN(C)CCN1C(=O)c2cccc3c(-c4ccc5ncn(C6CCCCC6)c5c4)ccc(c23)C1=O
category_label: y

compound: COc1ccc(-c2nn(-c3cccc(NC(=O)c4ccc5c(c4)OCCO5)c3)cc2-c2ccncc2)cc1Cl
category_label: y

compound: O=C(N/N=C/c1ccccc1O)C(O)(c1ccccc1)c1ccccc1
category_label: n

From here, focus on the item given below.
# input Below 20% on growth? Entry O=C(CCCCCCC(=O)Nc1cccnc1)NO
# output y

* * *

system: T-47D breast; assay: NCI-60 one-dose screen, 48 h (100 = growth as untreated, 0 = no growth, -100 = all killed); settings: 10 µM
The panel holds about 83,000 compounds, 20% with a hit somewhere; the sample as a whole holds those more often.
# if measured growth < 50%: Criterion met  # else: Criterion not met

Example entries and their recorded answers appear below.
compound: CC1(C)CCC(=NNC(N)=S)CC1
target_of_assay: T-47D breast
category_label: Criterion not met
--
compound: CCc1ccc2c(c1)N(CCO)C1=C(C(=O)OC1)C2c1ccccc1 (stereo unspecified)
target_of_assay: T-47D breast
category_label: Criterion not met
--
compound: CCN(CCCCCCCCCCN1CC(=O)N(CCCCCCCCCCN(CC)Cc2ccccc2OC)CC1=O)Cc1ccccc1OC
target_of_assay: T-47D breast
category_label: Criterion met
--
compound: Nc1nc(N)c(NC(=O)CNc2ccc(C(=O)O)cc2)c(N)n1
target_of_assay: T-47D breast
category_label: Criterion not met
--
compound: COc1ccc(Cl)cc1C(=O)Nc1nc2ccc(Cl)cc2s1
target_of_assay: T-47D breast
category_label: Criterion met
--
compound: CNc1ncc(-c2ccc(C(F)(F)F)cc2)c(NC2CCCCCC2)n1
target_of_assay: T-47D breast
category_label: Criterion met
--
compound: O=C(O)c1ccc(P(=O)(O)O)c([N+](=O)[O-])c1
target_of_assay: T-47D breast
category_label: Criterion not met
--
compound: COc1cc(Nc2ncnc(Nc3ccc4c(n3)NC(=O)C(C)(C)O4)n2)cc(OC)c1OC
target_of_assay: T-47D breast
category_label: Criterion met

# input Determine if Nc1c(C(=O)Nc2cccc(F)c2)sc2nc3c(cc12)C(=O)CCC3 shows growth strictly lower than 50%.
# output Criterion met

# input Take the compound CCCCCCN(CCCCCC)CC(O)c1ccc2c3c(cccc13)CC2 (stereo unspecified) and say whether its growth is less than 50%.
# output Criterion met

# input Is the reported growth for CCOC(=O)C(NC(=O)C(Cl)Cl)C(O)c1ccccc1 (stereo unspecified) strictly below 50%?
# output Criterion not met
